B1: mRNA-splicing (parent)
chain: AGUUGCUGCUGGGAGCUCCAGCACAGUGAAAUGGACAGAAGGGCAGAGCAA

# Variants of: B1
# measurement_description: exon inclusion enrichment index; higher = more inclusion; WT1 exon 5 minigene, HEK293
Assign class by exon inclusion enrichment index: not lower than 0.01 means 1; lower than 0.01 means -1.

mutation="U3G U4G G5U G8U C9U" answer_label=1
mutation="G5A U7C G8A U10C G46U A47G" answer_label=1
mutation="G5A C6G U7G C9A G33C G34U" answer_label=-1
mutation="G5A C6U U7A G8U C9A G28A A29G" answer_label=-1
mutation="G41A G42A" answer_label=1
mutation="G5A C6G U7G C9A G21C" answer_label=-1
mutation="G5A C6G U7G C9A A20U G21A" answer_label=-1
mutation="C6A U7A C9A U10A C19G A20C" answer_label=1
mutation="C6A U7A G8C C9A U10A" answer_label=1
mutation="G5A U7C G8A U10C A29G" answer_label=1
mutation="G5C C6A U7C G8A U10A G26U U27A" answer_label=1
mutation="G5C C6G U7C U10C U27A G28C" answer_label=1
mutation="G5A C6U U7A G8U C9A A45U" answer_label=1
mutation="G5U G8U C9U A29U A30G" answer_label=1
mutation="A31C U32G" answer_label=1
mutation="C19G A20C" answer_label=1
mutation="C6U U7G" answer_label=1
mutation="G5A U7C G8A U10C C18G C19A" answer_label=1
mutation="G5A C6G U7G C9A C24G A25C" answer_label=-1
mutation="G5A C6G U7G C9A G21C C22G" answer_label=-1
mutation="G5A C6U U7C G8U C9A" answer_label=1
mutation="C6A U7C C9A U10C G13U A14C" answer_label=1
